- Target System: CDK19/Cyclin C (Homo sapiens, UniProt Q9BWU1)
- Sequence (Q9BWU1 whole entry): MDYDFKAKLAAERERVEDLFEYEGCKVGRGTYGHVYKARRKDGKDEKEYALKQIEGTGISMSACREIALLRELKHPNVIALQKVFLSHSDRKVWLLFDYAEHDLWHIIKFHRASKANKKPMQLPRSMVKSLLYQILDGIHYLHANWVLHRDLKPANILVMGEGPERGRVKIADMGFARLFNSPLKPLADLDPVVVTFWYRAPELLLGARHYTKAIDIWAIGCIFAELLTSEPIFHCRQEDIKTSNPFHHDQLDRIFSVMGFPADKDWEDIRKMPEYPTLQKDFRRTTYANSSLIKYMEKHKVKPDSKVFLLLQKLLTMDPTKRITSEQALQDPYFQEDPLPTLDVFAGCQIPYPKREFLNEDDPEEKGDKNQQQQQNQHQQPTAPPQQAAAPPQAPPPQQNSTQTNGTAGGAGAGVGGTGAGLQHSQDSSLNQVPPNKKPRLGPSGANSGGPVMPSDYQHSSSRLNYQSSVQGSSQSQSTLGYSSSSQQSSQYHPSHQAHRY
- Sequence (P24863 whole entry partner): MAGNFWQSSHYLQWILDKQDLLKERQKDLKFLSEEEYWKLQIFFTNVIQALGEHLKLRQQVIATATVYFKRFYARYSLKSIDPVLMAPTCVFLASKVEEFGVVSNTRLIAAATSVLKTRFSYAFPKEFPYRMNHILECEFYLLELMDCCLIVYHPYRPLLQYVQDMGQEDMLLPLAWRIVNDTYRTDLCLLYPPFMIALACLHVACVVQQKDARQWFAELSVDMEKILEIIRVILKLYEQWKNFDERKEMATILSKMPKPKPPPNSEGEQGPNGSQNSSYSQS
- Test Details: NanoBRET live-cell target engagement, NanoLuc-CDK19/Cyclin C in HEK-293
- Measurement Setup: read-out: Inhibition at 10µM (%), CDK19/C; experiment 2
Attribute: inhibition at 10 µM
Entry format: amount then unit.

>>> print(df.to_string())
                               smiles_entry    recorded_endpoint  readout_value
0  CN1CCN(c2ccc(Nc3ncc4cc(C#N)c(=O)n(C5CCCC5)c4n3)cc2)CC1  inhibition at 10 µM          -7.2%

"CN1CC[C@H](c2c(O)cc(O)c3c(=O)cc(-c4ccccc4Cl)oc23)[C@H](O)C1" has a reported inhibition at 10 µM of 93.5%

"CCc1cnn2c(NCc3ccc[n+]([O-])c3)cc(N3CCCC[C@H]3CCO)nc12" has a reported inhibition at 10 µM of 24.7%

"N#CCNC(=O)c1ccc(-c2ccnc(Nc3ccc(N4CCOCC4)cc3)n2)cc1" has a reported inhibition at 10 µM of 1.6%

Values were extracted from paper PMC7265341.
